read-out: Alpha-fetoprotein (AFP) gene, AFP (gene 174); test: LTEA_HepaRG_AFP: Life Technologies and Expression Analysis (LTEA) Assay for Alpha-fetoprotein (AFP) gene using HepaRG (AID 2283472); conditions: mRNA level, 48 h; actives raise or lower the signal
Activity calls are given as the source filed them. Rule for the calls: active = hit-call score of the fitted dose curve at least 0.9, where 1 is the maximum; inactive = score below 0.9.
Result category, one only: true = active, false = inactive

Query: // return assay outcome for O=C1NS(=O)(=O)c2ccccc21
Result: false

Query: Quick one: O=C(CCCN1CCC(O)(c2ccc(Cl)cc2)CC1)c1ccc(F)cc1
Result: true

Query: Ok, now CCCCCCCCCCCCCCC
Result: false

Query: Could you do the same for N=C(N)c1ccc(OCCCCCOc2ccc(C(=N)N)cc2)cc1 , please?
Result: true

Query: What do you have for OCC(CO)(CBr)CBr ?
Result: false

Query: CN(C)CCOC(c1ccccc1)c1ccccc1 ?
Result: true

Query: What do you get for CCCCCCCCCCCCOS(=O)(=O)O ?
Result: true

Query: What about this molecule? CC(=O)Nc1ccc(O)cc1
Result: false

Query: Next: CCCCC(CC)C(=O)O (centres undefined)
Result: false

* * *

assay: ATG_TGFb_CIS: Attagene CIS-FACTORIAL HepG2 Assay for human Transforming Growth Factor (TGF) (AID 2282967); settings: HepG2 Attagene CIS TGFb reporter, mRNA transcription; actives raise or lower the signal
Activity calls are given as the source filed them. Rule for the calls: active = hit-call score of the fitted dose curve at least 0.9, where 1 is the maximum; inactive = score below 0.9.
Entry note: the call must match one of true = active, false = inactive

Query: Which result was noted for this molecule in the test: CC1COCc2cc3c(cc21)C(C)(C)C(C)C3(C)C (configuration not stated)
Result: false

Query: Input CCOC=O
Result: false

Query: Also check CCOC(=O)c1nc(C(Cl)(Cl)Cl)n(-c2ccc(Cl)cc2Cl)n1
Result: true

Query: Moving on to the next molecule: O=S(=O)(O)c1ccc2cc(O)ccc2c1
Result: false

Query: // next record c1ccc(CNc2ncnc3c2ncn3C2CCCCO2)cc1 (configuration not stated)
Result: false

Query: Try the molecule CCC(=O)C=Cc1ccc(OC)cc1
Result: false

Query: Repeat for the following molecule: OCC(CO)(CBr)CBr
Result: false

* * *

test: BSK_KF3CT_SRB: Viability Assessment in the BioMAP Diversity Plus: KF3CT Assay (AID 2283069); conditions: primary human keratinocytes with fibroblasts;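 note: total protein by sulforhodamine B staining as a cytotoxicity measure; read 24 h after compound addition; fitted for both signal gain and loss against DMSO baseline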
Calls of active or inactive are those of the source. How the source made its calls: active means hit-call score of the fitted dose curve at least 0.9, where 1 is the maximum; inactive means score below 0.9.
Choose one outcome from this list and give only that: true for active, false for inactive

Query: Hi, do you know how Oc1cc2ccccc2cc1O came out in this test?
Result: false

Query: Follow-up entry: Oc1c(Cl)cc(Cl)cc1Sc1cc(Cl)cc(Cl)c1O
Result: false

Query: CCCCCCCCCCCC , same question.
Result: false

Query: One more compound: CC(C)(C)c1ccc(O)c(O)c1
Result: false

Query: Repeat with CCCCCCCCCCCCOS(=O)(=O)O
Result: true

Query: Item: Cc1[nH]nc2c1N=C(c1ccccc1Cl)c1cc([N+](=O)[O-])ccc1N2
Result: false

Query: Moving on to COC1=CC(=O)C[C@@H](C)[C@]12Oc1c(Cl)c(OC)cc(OC)c1C2=O
Result: false

Query: Now the compound Cc1ccc(C(=O)c2ccccc2)cc1
Result: false

Query: Let us now turn to O=P(O)(O)CCC(F)(F)C(F)(F)C(F)(F)C(F)(F)C(F)(F)C(F)(F)F
Result: false

Query: Also check CCCCCc1ccc(O)cc1
Result: true

Query: Queued: CC[N+](CC)(CC)Cc1ccccc1
Result: false

Query: Now this one: O=P(O)(O)CCC(F)(F)C(F)(F)C(F)(F)C(F)(F)C(F)(F)C(F)(F)C(F)(F)C(F)(F)F
Result: false

Query: What do you get for CCCCCCCCCCCCCCCCCC[N+](C)(C)Cc1ccccc1 ?
Result: true

Query: Then what about the compound COCN(COC)c1nc(N(COC)COC)nc(N(COC)COC)n1 ?
Result: false

Query: Query N=C(N)c1ccc(OCCCCCOc2ccc(C(=N)N)cc2)cc1 next
Result: false

Query: Moving on to the next compound: O=C(O)CCC(F)(F)C(F)(F)C(F)(F)C(F)(F)C(F)(F)C(F)(F)F
Result: false

Query: Next entry: O=C(c1ccccc1)c1ccccc1
Result: false

Query: Then CC1=NN(c2ccccc2)C(=O)C1 ?
Result: false

Query: Same question, CCC(C)c1ccccc1O (configuration not stated) this time
Result: false

Query: Similarly, CCCCC(CC)C(=O)O (configuration not stated) ?
Result: false

Query: # iterate: CCCCC=O
Result: false

Query: One more compound: COc1cc(OC)nc(NC(=O)NS(=O)(=O)Nc2ccccc2C(=O)N(C)C)n1
Result: false

* * *

biological target: Estrogen receptor (Homo sapiens); test: ATG_ERa_TRANS: Attagene TRANS-FACTORIAL HepG2 Assay for human Estrogen Receptor alpha (ERa) (AID 2282970); settings: HepG2 Attagene TRANS ERa GAL4 reporter, mRNA
Inconclusive results are not listed. Active and inactive are the calls of the source. The calls were made as follows: active = hit-call score of the fitted dose curve at least 0.9, where 1 is the maximum; inconclusive = response in the unintended direction; inactive = score below 0.9.
outcome_measure: outcome

Recorded results for 10 compounds are shown here.
CCCCC(CC)C(=O)OCCOCCOCCOCCOC(=O)C(CC)CCCC (stereo not drawn) = inactive
O=C1OC(=O)c2cc(-c3ccc4c(c3)C(=O)OC4=O)ccc21 = inactive
O=C(Nc1cccc([N+](=O)[O-])c1)c1cc2ccccc2cc1O = inactive
FC(F)(F)C1(F)C(F)(F)C(F)(F)C(F)(F)C1(F)F = inactive
O=C(OC(=O)C(F)(F)C(F)(F)F)C(F)(F)C(F)(F)F = inactive
Oc1c(Cl)ccc(Cl)c1Cl = inactive
CC1CCC(C(=O)O)CC1 (stereo not drawn) = inactive
FC(F)=C(F)C(F)(F)C(F)(F)C(F)(F)C(F)F = inactive
CC(C)(O)C(=O)c1ccccc1 = inactive
Clc1ccc(Nc2nnc(Cc3ccncc3)c3ccccc23)cc1 = inactive

Query: Name the reported outcome value associated with the compound CCCCCCCC(OC)OC
Result: inactive

Query: And what about the compound Cc1cc(Cc2cc(C)cc(C(C)(C)C)c2O)c(O)c(C(C)(C)C)c1 ?
Result: inactive

Query: Lookup CCOCCOCC
Result: inactive

* * *

assay: Tanguay_ZF_120hpf_BRAI_legacy: (Legacy) Oregon State University Tanguay Lab 120 Hour Post-fertilization zebrafish Assay for Brain Malformation (AID 2283641)
Records with an inconclusive call do not appear. Activity calls are given as the source filed them. Rule for the calls: active = hit-call score of the fitted dose curve at least 0.9, where 1 is the maximum; inconclusive = response in the unintended direction; inactive = score below 0.9.
Answer with one of the outcomes given here: active, inactive

Query: // outcome(item) with item = CCCCC=O
Result: active

Query: // same read-out, input: CCCCCCCCCCCCCCC
Result: inactive

Query: Another: CCC(C)c1ccccc1O (stereo unspecified)
Result: inactive

Query: One more molecule: CC(=O)Nc1ccc(O)cc1
Result: inactive

Query: Note, next up: CCCCC(CC)C(=O)O (stereo unspecified)
Result: inactive

Query: Try the molecule Cc1[nH]nc2c1N=C(c1ccccc1Cl)c1cc([N+](=O)[O-])ccc1N2
Result: inactive

* * *

read-out: Interleukin-8 (IL8), CXCL8 (gene 3576); assay: BSK_3C_IL8: BioMAP Diversity Plus: 3C Assay for Interleukin-8 (IL8) Biomarker Activity (AID 2283020); conditions: primary human endothelial cells (HUVEC); actives raise or lower the signal
Calls of active or inactive are those of the source. Rule for the calls: active = hit-call score of the fitted dose curve at least 0.9, where 1 is the maximum; inactive = score below 0.9.
Use one of these outcomes when replying: active, inactive

Query: Hi, sorry to bother you, what did the test record for C[C@]12CC[C@@H]3c4ccc(O)cc4CC[C@H]3[C@@H]1C[C@@H](O)[C@@H]2O ?
Result: inactive

Query: And OCC(CO)(CBr)CBr ?
Result: inactive

Query: Could you do the same for OCC(F)(F)C(F)(F)C(F)(F)C(F)(F)C(F)(F)C(F)(F)C(F)(F)C(F)(F)C(F)(F)C(F)(F)C(F)(F)F , please?
Result: inactive

Query: Ok, now Cc1ccc(C(=O)c2ccccc2)cc1
Result: active

Query: # repeat for COc1cc(OC)nc(NC(=O)NS(=O)(=O)Nc2ccccc2C(=O)N(C)C)n1
Result: inactive

Query: CC1=NN(c2ccccc2)C(=O)C1 , same question.
Result: inactive

Query: Try the compound Oc1cc2ccccc2cc1O
Result: inactive

Query: And then CCOC(=O)CN[C@@H](C(=O)N1CC[C@H]1C(=O)NCc1ccc(/C(N)=N/O)cc1)C1CCCCC1 , what is it?
Result: inactive

Query: Note, next up: O=C(NO)c1ccccc1
Result: inactive

Query: Next: O=C(c1ccccc1)c1ccccc1
Result: inactive

Query: Also check CN(CCO)S(=O)(=O)C(F)(F)C(F)(F)C(F)(F)C(F)(F)C(F)(F)C(F)(F)C(F)(F)C(F)(F)F
Result: inactive

Query: Again, but for C=CC(C)(CCC=C(C)C)OC(C)=O (stereo not drawn)
Result: inactive

Query: And what about the compound CCCCC=O ?
Result: inactive

Query: Now this one: O=C1c2ccc(O)c(O)c2C(=O)c2c(O)ccc(O)c21
Result: inactive

Query: Now consider COCN(COC)c1nc(N(COC)COC)nc(N(COC)COC)n1 and answer again.
Result: inactive

Query: What about Cc1ccc(N=Nc2c(O)ccc3ccccc23)c(C)c1 ?
Result: inactive

Query: Another: CN(C)CCOC(c1ccccc1)c1ccccc1
Result: inactive

Query: Same read-out for O=C(O)CCC(F)(F)C(F)(F)C(F)(F)C(F)(F)C(F)(F)C(F)(F)F ?
Result: inactive

Query: Then this compound: O=S(=O)(O)C(F)(F)C(F)(F)C(F)(F)C(F)(F)C(F)(F)C(F)(F)C(F)(F)C(F)(F)C(F)(F)C(F)(F)F
Result: inactive

Query: Try CN(Cc1cnc2nc(N)nc(N)c2n1)c1ccc(C(=O)N[C@@H](CCC(=O)O)C(=O)O)cc1 next.
Result: inactive

Query: Follow-up item: N=C(N)c1ccc(OCCCCCOc2ccc(C(=N)N)cc2)cc1
Result: active

Query: Can you check O=C(O)CCC(F)(F)C(F)(F)C(F)(F)C(F)(F)C(F)(F)F next?
Result: inactive

Query: Also, CCCCCCCCCCCCCCCCCC[N+](C)(C)Cc1ccccc1 please.
Result: active
